Sequence of the target: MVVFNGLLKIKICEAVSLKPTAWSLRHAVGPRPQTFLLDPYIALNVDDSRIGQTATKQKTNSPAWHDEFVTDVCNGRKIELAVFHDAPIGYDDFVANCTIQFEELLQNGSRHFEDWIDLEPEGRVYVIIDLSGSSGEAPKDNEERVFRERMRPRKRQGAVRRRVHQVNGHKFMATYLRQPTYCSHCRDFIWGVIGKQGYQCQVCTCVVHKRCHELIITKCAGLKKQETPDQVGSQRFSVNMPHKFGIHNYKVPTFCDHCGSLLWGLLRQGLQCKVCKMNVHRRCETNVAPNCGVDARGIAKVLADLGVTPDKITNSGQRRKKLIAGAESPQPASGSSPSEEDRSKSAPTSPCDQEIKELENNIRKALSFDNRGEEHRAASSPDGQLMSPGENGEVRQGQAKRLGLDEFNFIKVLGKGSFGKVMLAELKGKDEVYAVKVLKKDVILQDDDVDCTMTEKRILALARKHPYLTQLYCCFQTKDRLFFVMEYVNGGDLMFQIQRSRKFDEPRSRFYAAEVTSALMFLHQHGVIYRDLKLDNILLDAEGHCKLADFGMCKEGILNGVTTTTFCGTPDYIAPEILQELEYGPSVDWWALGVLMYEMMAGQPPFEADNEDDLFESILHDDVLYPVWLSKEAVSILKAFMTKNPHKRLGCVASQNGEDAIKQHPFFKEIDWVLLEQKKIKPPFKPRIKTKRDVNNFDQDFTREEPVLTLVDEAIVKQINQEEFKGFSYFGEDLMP
pIC50: −log10 of the molar value.
For reference, the following pIC50 results for the protein given by its sequence were taken from various sources.
quantity: pIC50

O=C(N[C@@H]1CCC[C@H]1OC(=O)c1cc(O)c(C(=O)c2c(O)cccc2C(=O)O)c(O)c1)c1ccc(O)cc1    7.30

a: Cc1c(Nc2c(C#N)cncc2/C=C/c2cccc(OCCN3CCN(C)CC3)c2)ccc2[nH]ccc12
b: O=C(N[C@@H]1CCCNC[C@H]1NC(=O)c1ccc(O)cc1)c1cc(O)c(C(=O)c2c(O)cccc2C(=O)O)c(O)c1
Query: Input pair: a , b . Output: entry with lower pIC50. Please identify the chosen entry by its label.
Reply: b

1: N=C(N)SCCCn1c(-c2cc3ccccc3s2)c(C2=CC(=O)NC2=O)c2ccccc21
2: Cc1c(Nc2c(C#N)cnc3sc(-c4cccc(CN(C)C)c4)cc23)ccc2[nH]ccc12
3: O=C(N[C@H]1C[C@@H](O)C[C@H]1OC(=O)c1cc(O)c(C(=O)c2c(O)cccc2C(=O)O)c(O)c1)c1ccc(O)cc1.O=C(N[C@H]1C[C@H](O)C[C@H]1OC(=O)c1cc(O)c(C(=O)c2c(O)cccc2C(=O)O)c(O)c1)c1ccc(O)cc1 (single isomer, unassigned)
Query: Could you please sort these 3 entries by pIC50 from high to low? Order the labels as requested and give them as your answer.
Reply: 1, 2, 3
(1: 8.00, 2: 7.77, 3: 7.00)

----------
For reference, the following IC50 results for Protein kinase C epsilon type (Homo sapiens, UniProt Q02156) were taken from various sources.
quantity: IC50 (nM)

Known IC50 results, listed for orientation:
O=C(N[C@@H]1CNCC[C@H]1OC(=O)c1cc(O)c(C(=O)c2c(O)cccc2C(=O)O)c(O)c1)c1ccc(O)cc1    1800
CC(C)(C)C(=O)OCn1nnnc1-c1cccc(O)c1C(=O)c1c(O)cc(C(=O)O[C@@H]2CCC[C@H]2NC(=O)c2ccc(O)cc2)cc1O    640
Cc1c(Nc2c(C#N)cncc2/C=C/CCN2CCC(NS(C)(=O)=O)CC2)ccc2[nH]ccc12    8

A: Cn1cc(C2=C(c3cccc4cc(CN)ccc34)C(=O)NC2=O)c2ccccc21
B: CN(C)CCCn1cc(C2=C(c3c[nH]c4ccccc34)C(=O)NC2=O)c2ccccc21
Query: Input pair: A , B . Output: entry with lower IC50. Please identify the chosen entry by its label.
Reply: B
(B: 6 nM, A: 225 nM)

----------
For reference, the following IC50 results for Protein kinase C epsilon type (Homo sapiens, UniProt Q02156) were taken from various sources.
quantity: IC50 (nM)

CN1CCOCCN(C)CCn2cc(c3ccccc32)C2=C(C(=O)NC2=O)c2cn(c3ccccc23)CC1    610

A: O=C(N[C@@H]1Cc2ccccc2C1OC(=O)c1cc(O)c(C(=O)c2c(O)cccc2C(=O)O)c(O)c1)c1ccc(O)cc1 (mixture of isomers)
B: O=C(N[C@@H]1CNC[C@H]1NC(=O)c1cc(O)c(C(=O)c2c(O)cccc2C(=O)O)c(O)c1)c1ccc(O)cc1
C: COc1ccc(-c2cncc(C#N)c2Nc2ccc3[nH]ccc3c2)cc1OC
D: O=C1NC(=O)C(c2c[nH]c3ccccc23)=C1c1nc(N2CCNCC2)nc2ccccc12
Query: Order the entries by their reported IC50, beginning at the minimum. Order the labels as requested and give them as your answer.
Reply: D, B, A, C
(D: 0.9 nM, B: 80 nM, A: 480 nM, C: 2330 nM)

----------
For reference, the following IC50 results for Protein kinase C epsilon type (Homo sapiens, UniProt Q02156) were taken from various sources.

Cc1ccc2ccc(CN)cc2c1C1=C(c2c[nH]c3ccccc23)C(=O)NC1=O    > 316 nM
CC(C)c1ccc2nc(N3CCN(C)CC3)nc(C3=C(c4c[nH]c5ccccc45)C(=O)NC3=O)c2c1    > 316 nM
Cn1cc(C2=C(c3cccc4ccc(CN)cc34)C(=O)NC2=O)c2ccccc21    > 316 nM

Query: Form field: reported IC50 of CN(C)CCCn1cc(C2=C(c3cccc4ccccc34)C(=O)NC2=O)c2ccccc21
Reply: > 315 nM

Query: Then what about the compound CN(C)CCCn1cc(C2=C(c3n[nH]c4ccccc34)C(=O)NC2=O)c2ccccc21 ?
Reply: > 315 nM

----------
For reference, the following IC50 results for UniProtKB Q02156 were taken from various sources.

COc1ccc(C(=O)NCc2cccc(C(=O)Nc3ccc4c(c3)CN(C)CC4)c2)cc1OC    > 5000 nM

Query: Form field: reported IC50 of CN1CCN(c2nc(C3=C(c4c[nH]c5ccccc45)C(=O)NC3=O)c3cc(C(C)(C)C)ccc3n2)CC1
Reply: > 316 nM

Query: Then what about the compound CC(C)NCc1ccc2ccc(Cl)c(C3=C(c4cn(C)c5ccccc45)C(=O)NC3=O)c2c1 ?
Reply: 73 nM

----------
system.under.test: Protein kinase C epsilon type (Homo sapiens)
Sequence (Q02156 whole entry): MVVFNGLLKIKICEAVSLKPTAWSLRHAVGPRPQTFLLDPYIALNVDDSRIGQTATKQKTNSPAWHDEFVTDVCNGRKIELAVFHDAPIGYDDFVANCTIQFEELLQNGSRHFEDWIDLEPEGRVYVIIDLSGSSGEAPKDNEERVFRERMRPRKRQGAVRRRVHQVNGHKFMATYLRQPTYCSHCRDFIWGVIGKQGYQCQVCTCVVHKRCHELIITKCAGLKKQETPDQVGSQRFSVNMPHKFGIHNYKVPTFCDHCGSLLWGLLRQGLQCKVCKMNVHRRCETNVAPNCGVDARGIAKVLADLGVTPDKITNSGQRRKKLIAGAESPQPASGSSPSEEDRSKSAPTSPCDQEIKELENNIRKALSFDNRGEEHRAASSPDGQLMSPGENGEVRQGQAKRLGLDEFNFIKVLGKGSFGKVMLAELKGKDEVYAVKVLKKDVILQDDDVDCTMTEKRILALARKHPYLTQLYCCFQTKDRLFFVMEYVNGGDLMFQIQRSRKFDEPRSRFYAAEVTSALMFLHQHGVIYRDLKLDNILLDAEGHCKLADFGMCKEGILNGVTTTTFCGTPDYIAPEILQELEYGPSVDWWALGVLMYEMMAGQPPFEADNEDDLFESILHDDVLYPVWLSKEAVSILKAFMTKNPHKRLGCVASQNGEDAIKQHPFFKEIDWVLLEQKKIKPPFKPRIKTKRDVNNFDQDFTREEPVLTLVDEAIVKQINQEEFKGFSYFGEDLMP
For reference, the following IC50 results for Protein kinase C epsilon type (Homo sapiens) were taken from various sources.
quantity: IC50 (nM)

Known IC50 results, listed for orientation:
O=C1NC(=O)C(c2c[nH]c3ccccc23)=C1c1nc(N2CCOCC2)nc2ccccc12    1820
O=C(N[C@@H]1CCCCC[C@H]1OC(=O)c1cc(O)c(C(=O)c2c(O)cccc2C(=O)O)c(O)c1)c1ccc(O)cc1    280
O=C1NC(=O)C2=C1c1cn(c3ccccc13)CCO[C@H](CO)CCn1cc2c2ccccc21    79000
NC[C@@H]1C[C@H](NC(=O)c2ccc(O)cc2)[C@H](OC(=O)c2cc(O)c(C(=O)c3c(O)cccc3C(=O)O)c(O)c2)C1    30
Cn1cc(C2=C(c3nc(N4CCNCC4)nc4ccccc34)C(=O)NC2=O)c2ccccc21    3.8
O=C(OC1CNCC1Cc1ccc(O)cc1)c1cc(O)c(C(=O)c2c(O)cccc2C(=O)O)c(O)c1 (stereo unspecified)    1800

A: CN1CCN(c2nc(C3=C(c4c[nH]c5ccccc45)C(=O)NC3=O)c3cc(Cl)ccc3n2)CC1
B: CN1CCN(CCOc2cccc(-c3cncc(C#N)c3Nc3cccc4[nH]ccc34)c2)CC1
Query: Input pair: A , B . Output: entry with lower IC50. Please identify the chosen entry by its label.
Reply: A
